target: P97 (Homo sapiens (Human), UniProt P55072); test: P97 Biomolgreen ATPase assay, 200 μM ATP; format: biochemical; details: read-out: P97 Biomolgreen, IC50
Sequence (P55072 whole entry): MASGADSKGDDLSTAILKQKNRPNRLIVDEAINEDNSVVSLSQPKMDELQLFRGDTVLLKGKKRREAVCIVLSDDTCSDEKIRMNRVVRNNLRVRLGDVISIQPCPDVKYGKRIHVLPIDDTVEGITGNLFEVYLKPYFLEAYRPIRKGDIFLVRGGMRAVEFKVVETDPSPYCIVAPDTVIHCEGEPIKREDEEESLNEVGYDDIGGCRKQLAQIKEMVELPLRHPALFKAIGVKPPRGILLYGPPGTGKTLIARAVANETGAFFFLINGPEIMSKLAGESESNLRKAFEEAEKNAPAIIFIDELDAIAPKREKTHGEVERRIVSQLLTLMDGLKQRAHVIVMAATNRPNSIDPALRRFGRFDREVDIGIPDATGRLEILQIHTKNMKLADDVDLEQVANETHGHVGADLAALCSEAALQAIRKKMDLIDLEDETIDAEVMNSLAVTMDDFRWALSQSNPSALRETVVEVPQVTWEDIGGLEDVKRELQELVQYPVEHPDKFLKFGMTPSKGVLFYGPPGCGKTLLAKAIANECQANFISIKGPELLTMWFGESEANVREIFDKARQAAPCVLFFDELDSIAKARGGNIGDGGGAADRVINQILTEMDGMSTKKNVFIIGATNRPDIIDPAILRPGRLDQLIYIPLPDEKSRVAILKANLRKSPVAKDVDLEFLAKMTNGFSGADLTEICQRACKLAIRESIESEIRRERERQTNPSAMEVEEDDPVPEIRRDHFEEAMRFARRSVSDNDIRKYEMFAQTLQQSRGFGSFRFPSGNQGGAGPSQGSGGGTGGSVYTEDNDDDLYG
quantity measured: IC50 (nM)

For orientation, consider the following solved cases.
Cc1cc(OCc2nnc(SC3C=CCCC3)n2-c2cccnc2)ccc1C#CC(C)(C)O (centres unmarked) [Compound 28]: 96
Cc1cc(OCc2nnc(SC3C=CCCC3)n2-c2cccnc2)ccc1C#CCNC(=O)CCl (centres unmarked) [Compound 95]: 30
Cc1cc(OCc2nnc(SC3CCCC3)n2-c2cccnc2)ccc1C#CCNC(=O)C(C)(C)C [Compound 10]: 92

(I) Cc1cc(OCc2nnc(SC3CCCC=C3F)n2-c2cccnc2)ccc1C#CCOC(=O)NCCN1CCN(C(C)C)CC1 (centres unmarked) [Compound 81]
(II) Cc1cc(OCc2nnc(SC3CCCC3)n2-c2cccnc2)ccc1C#CCO [Compound 89]
(III) Cc1cc(OCc2nnc(SC3C=CCCC3)n2-c2cncc(Cl)c2)ccc1C#CCO (centres unmarked) [Compound 84]
stdin: Order these by IC50, descending, and give the full ranking. Please list the labels according to the requested order.
stdout: III, I, II

(a) Cc1cc(OCc2nnc(SC3C=CCCC3)n2-c2cccnc2)ccc1C#CCOC(=O)NCCN1CCN(C(C)C)CC1 (centres unmarked) [Compound 29]
(b) Cc1cc(OCc2nnc(SC3C=CCCC3)n2-c2cccnc2)ccc1C#CCNS(=O)(=O)N(C)C (centres unmarked) [Compound 33]
stdin: Could you please tell me which of these two has the higher IC50: a or b ? Your answer should be the label of the entry you select.
stdout: b

Values from patent US10894782B2
